biological target: T1, human EGFR on cells (A431, NCI-H292, NCI-H322, NCI-H441) (human, UniProt P00533 25-1210); assay: A431 cell competition with biotinylated EGF
T1 construct: Endogenous EGFR of human tumor cell lines; also called HER-1; Erb-B1
Readout: IC50
Include the unit after the number when you answer.

Asked: Answer with the recorded IC50 for the binder listed here: P54AR4-83 (designed binder, not shown: small tags and cut ends) LPAPKNLVVSEVTEDSLRLSWDDPWAFYESFLIQYQESEKVGEAINLTVPGSERSYDLTGLKPGTEYTVSIYGVHNVYKDTNMRGLPLSAEFTT
Given back: 1.8 nM

Asked: Identify the reported IC50 for the following entry. P54CR4-31 (designed binder, not shown: small tags and cut ends) LPAPKNLVVSEVTEDSLRLSWTAPDAAFDSFLIQYQESEKVGEAINLTVPGSERSYDLTGLKPGTEYTVSIYGVLGSYVFEHDVMLPLSAEFTT
Given back: 55 nM

Asked: Please indicate IC50 recorded for P54AR4-17 (designed binder, not shown: small tags and cut ends) LPAPKNLVVSEVTEDSLRLSWTYDRDGYDSFLIQYQESEKVGEAINLTVPGSERSYDLTGLKPGTEYTVSIYGVHNVYKDTNMRGLPLSAEFTT
Given back: 21 nM

Asked: Answer with the recorded IC50 of P54AR4-73 (designed binder, not shown: small tags and cut ends, also called P54AR4-37) LPAPKNLVVSEVTEDSLRLSWTWPYADLDSFLIQYQESEKVGEAINLTVPGSERSYDLTGLKPGTEYTVSIYGVHNVYKDTNMRGLPLSAEFTT only.
Given back: 4.6 nM

Let us move to another entry and its IC50.
Asked: Give recorded IC50. P54AR4-81 (designed binder, not shown: small tags and cut ends) LPAPKNLVVSEVTEDSLRLSWDYDLGVYFDSFLIQYQESEKVGEAINLTVPGSERSYDLTGLKPGTEYTVSIYGVHNVYKDTNMRGLPLSAEFTT
Given back: 121 nM
